# study.target: T1, soluble cynomolgus GPNMB (recombinant extracellular domain) (cynomolgus, UniProt Q14956 23-499 (human entry), limits assumed)
# T1 chain: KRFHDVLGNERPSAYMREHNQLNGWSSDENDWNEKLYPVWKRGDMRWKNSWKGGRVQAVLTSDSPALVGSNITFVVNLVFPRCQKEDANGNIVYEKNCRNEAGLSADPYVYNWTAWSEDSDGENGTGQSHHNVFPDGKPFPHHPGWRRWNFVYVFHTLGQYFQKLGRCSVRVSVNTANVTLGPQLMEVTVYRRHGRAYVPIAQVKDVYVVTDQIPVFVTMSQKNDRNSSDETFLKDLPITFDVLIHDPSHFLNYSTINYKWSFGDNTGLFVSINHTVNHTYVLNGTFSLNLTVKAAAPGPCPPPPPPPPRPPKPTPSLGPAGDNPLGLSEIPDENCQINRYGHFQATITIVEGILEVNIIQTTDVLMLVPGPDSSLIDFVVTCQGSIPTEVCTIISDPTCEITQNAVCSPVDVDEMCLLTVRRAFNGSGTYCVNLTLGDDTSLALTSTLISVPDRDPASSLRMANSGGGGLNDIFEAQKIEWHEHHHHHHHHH
# assay.info: SPR binding

binder	binding result
anti-GPNMB antibody GPN-43 (antibody, human IgG1, V domains shown, chimeric) VH: EVQLQQSGPELVKPGASVKISCKASGYTFTDYYMNWVRQSHGKSLEWIGDINPYHGGSTYNQKIKVKATLTVDKSSSTAYMELRSLTSEDSAVYYCARNWPYFDYWGQGTTLTVSS VL: DIQMTQSPASLSASVGETVTITCRASENIYSFLVWYQQKQGKSPQLLVYNAKTLAEGVPSRFSGSGSGTQFSLKISSLQPEDFGSYYCQHHFGTPPYTFGGGTKLEIK	binds
anti-GPNMB antibody GPN-42 (antibody, human IgG1, V domains shown, chimeric) VH: DVKLVESGEDLVKPGGSLKLSCAASGFTFSSYAMSWVRQTPEKRLEWVAYISSGGDYIYYADTVKGRFTISRDNARNTLYLQMSSLKSEDTAMYYCTRDRYYDYDVRDYYTMDYWGQGTSVTVSS VL: DVMMTQTPLSLPVSLGDQASISCRSSQSLVHSNGNTYLHWFLQKPGQSPKLLIFRVSNRFSGVPDRFSGRGSGTDFTLKISRVEAEDLGVYFCSQTTHVPRTFGGGTTLEIK	binds
anti-GPNMB antibody GPN-48 (antibody, human IgG1, V domains shown, chimeric) VH: QVQLQQSGPELVKPGASVKLSCRASGYGFSSFWMNWVKQRPGKGLEWIGRIYPGKGDTLYNGKFKDKATLTADESSSTAYMQLSSLTSEDSAVYFCARSIYYYDYWYFDVWDTGTTVTVSS VL: DIVMTQSHKFMSTSVGDRVNITCKASQDVNSAIAWYQQKPGQSPKLLIYSASYRFIGVPDRFTGSGSGTGFTFTISSVQAEDLAVYYCQQHYTTPLTFGAGTKLELK	binds

# credit: patent US20250270343A1
